study_target: unphosphorylated VEGF-R2D50 (FLVK), cytosolic domain of human VEGF-R2 (Homo sapiens, UniProt P35968, DEL940-989/E990V)
Construct: VEGF-R2D50 contains residues 806–939 and 990–1171
Sequence (P35968 with tags, fused parts or gaps DEL940-989/E990V limits assumed): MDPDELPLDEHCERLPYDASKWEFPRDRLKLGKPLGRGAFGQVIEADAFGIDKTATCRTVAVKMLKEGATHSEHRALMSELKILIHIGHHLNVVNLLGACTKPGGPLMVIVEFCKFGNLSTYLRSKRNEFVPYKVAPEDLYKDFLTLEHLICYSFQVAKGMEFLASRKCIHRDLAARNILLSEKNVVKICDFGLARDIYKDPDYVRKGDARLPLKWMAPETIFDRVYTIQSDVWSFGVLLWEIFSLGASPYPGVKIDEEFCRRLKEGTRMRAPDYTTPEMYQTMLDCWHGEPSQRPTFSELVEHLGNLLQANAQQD
experiment_summary: VEGF-R2 coupled spectrophotometric assay (FLVK)
pKi: −log10 of the molar value.
metric: pKi

Recorded results for 4 compounds are shown here.
| compound | pKi |
| --- | --- |
| CO[C@@H]1CCN(C(=O)c2cc3nccc(Oc4ccc(CC(=O)Nc5ccccn5)c(Cl)c4)c3s2)C1 [Example 62] | 8.00 to 9.00 |
| O=C(Cc1ccc(Oc2ccnc3cc(C(=O)N4CCC4)sc23)cc1)Nc1ccncc1 [Example 35] | < 8.00 |
| O=C(Cc1ccc(Oc2ccnc3cc(C(=O)N4CCC4)sc23)cc1Cl)NCCCN1CCOCC1 [Example 57] | < 8.00 |
| Cc1cc(C)nc(NC(=O)Cc2ccc(Oc3ccnc4cc(C(=O)N(C)C)sc34)cc2)c1 [Example 7] | > 9.00 |

Bench note: what pKi did CNC(=O)C(OC)c1ccc(Oc2ccnc3cc(C(=O)N4CC[C@@H](O)C4)sc23)cc1Cl (some centres unmarked) [Example 70] show?
< 8.00

For the compound shown here, Cc1cc(NC(=O)Cc2ccc(Oc3ccnc4cc(C(=O)N5CCC5)sc34)cc2Cl)n[nH]1 [Example 55] , give the reported pKi.
> 9.00

// pKi lookup, key: CNC(=O)C(=O)c1ccc(Oc2ccnc3cc(C(=O)N4CC[C@@H](OC)C4)sc23)cc1 [Example 78]
< 8.00

Please report the recorded pKi for Cc1cccc(NC(=O)Cc2ccc(Oc3ccnc4cc(C(=O)N5CCC5)sc34)cc2)n1 [Example 25] .
> 9.00
